# Test system: SK-MEL-5
# test-summary: NCI tumour cell line growth inhibition, 48 h
The source made the active and inactive calls. Rule as the data show it: active = GI50 up to about 1.1 µM and inactive = higher.
Lab note: assign the record to one of True = active, False = inactive

O=[N+]([O-])c1ccc2c(c1)c(OCc1ccccc1)nn2Cc1ccccc1: False

Here is another molecule to look at.
[ask] Please let me know the test result on file for CSc1c(C#N)c(N)nc2c(/N=N\c3ccc(Br)cc3)c(N)nn12 .
[reply] False

----------
# System: NCI-H460
# test-summary: NCI tumour cell line growth inhibition, 48 h
Active and inactive are the calls of the source. No stated cut-off is given here; in the data, active = GI50 up to about 1.1 µM and inactive = higher.
Pick one and only one: active, inactive

[ask] In this assay, the call recorded for O=Cc1ccc2c(c1)CC1(C2)Cc2ccc3c(c2C1)CCC3 (centres undefined) was what?
[reply] inactive

[ask] Assay outcome for Oc1ccc2ccccc2c1/N=N/c1cccc2ccccc12 : what was it?
[reply] inactive

[ask] How was O/N=N\c1nc(-c2ccccn2)nc2ccccc12 classified in this test?
[reply] inactive

----------
Items are presented alongside their recorded GI50.
# Test system: EKVX
# test-summary: NCI tumour cell line growth inhibition, 48 h
Active and inactive are the calls of the source. No stated cut-off is given here; in the data, active = GI50 up to about 1.1 µM and inactive = higher.

CC(C)(C)OC(=O)c1ccc(NCC2=CC(=O)C=CC2=O)cc1: 14.8 µM (inactive)
O=C(/N=C1/OC(CN2CCOCC2)CN1C(=O)Nc1ccccc1)Nc1ccccc1 (centres undefined): > 100 µM (inactive)
Cc1cc(Nc2ccc(NS(C)(=O)=O)cc2)c2c(ccc3[nH]ccc32)n1: 36 µM (inactive)
COc1ccc([N+](=O)[O-])c2c(NCC(O)CO)ccnc12 (centres undefined): 16.1 µM (inactive)
COC(C)(C)[C@H](O)C(O)CC(C)[C@@H]1CCC23CC12CCC1[C@@]2(C)CCC(OC(C)=O)C(C)(C)C2CC(OC2OC(COC(C)=O)C(O)C(O)C2O)[C@]13C (some centres undefined): 7.46 µM (inactive)
CC(=O)N(C(=O)CC(=O)N/N=C\c1ccc(Br)c(N(CCC#N)CCC#N)c1)c1ccc(Cl)cc1: 60.5 µM (inactive)
CCOC(=O)/C=C/c1c(C)[nH]c(=O)[nH]c1=O: > 250 µM (inactive)
CSc1c(C#N)c(N)nc2c(/N=N\c3ccc(Br)cc3)c(N)nn12: 7.78 µM (inactive)

Next compound, GI50 to be filled in.
[ask] Read off the recorded GI50 for CCN(CC)CCn1ccc(=O)c2cc3c(=O)ccn(CCN(CC)CC)c3c(C)c21
[reply] 5.77 µM (inactive)

----------
# System: CAKI-1
# test-summary: NCI tumour cell line growth inhibition, 48 h
Activity calls are given as the source filed them. No stated cut-off is given here; in the data, active = GI50 up to about 1.1 µM and inactive = higher.
quantity: GI50

Example results:
O=C(Nc1cccc(O)c1)C(=O)C(C(=O)c1ccccc1F)C1OC(=O)c2ccccc21 (stereo unspecified): 32.9 µM (inactive)
O=C(c1ccc([N+](=O)[O-])cc1)N1CCCC1: > 100 µM (inactive)
CC(C)=CCC/C(C)=C/CCC1(C)C=Cc2c(c3ccccc3oc2=O)O1 (stereo unspecified): 17.2 µM (inactive)
CCOC(=O)C1=C(Nc2ccc(Br)cc2)OCC1=O: > 100 µM (inactive)

// moving on: another record for GI50
[ask] Please give the documented GI50 of C=C(CCOC)CCC1CCCCC(=C)[C@H]1O (stereo partly specified)
[reply] > 100 µM (inactive)

----------
# Test system: SK-OV-3
# test-summary: NCI tumour cell line growth inhibition, 48 h
The source made the active and inactive calls. Cut-off read from the data, not from the text of the source: active = GI50 up to about 1.1 µM and inactive = higher.
Tick one outcome: active, inactive

CCOC(=O)[C@H](C)OC(=O)[C@@](C)(NC(=O)c1ccccc1C(=O)OC)[C@@H]1NC=C(C(=O)OC)CS1: inactive
Cn1c(C(C#N)c2nc(Cl)ncc2Br)nc2ccccc21 (stereo unspecified): inactive
CC1=C(N2CC2)C(=O)C(C)=C(N2CC2)C1=O: active

[ask] Per the records of this test, what outcome belongs to O=C(Nc1ccc(Br)cc1)C(=O)C(C(=O)c1ccc(Cl)c(Cl)c1)C1OC(=O)c2ccccc21 (stereo unspecified) ?
[reply] inactive

[ask] Field: outcome | Entry: CC(C)(C)c1cc(OCc2nnc(S)n2N)c(Cl)cc1OCc1nnc(S)n1N
[reply] inactive
